Tested on: Agrobacterium tumefaciens
Test Name: Inhibition zone assay (agar plate)
Assay type: cell-based
Condition Summary: agar plate, 50 nanomoles/well, 3 mm wells
Residues, ends and D or L forms follow the SMILES beside them.
Value Type: inhibition zone diameter (number of plus signs)

CC[C@H](C)[C@H](NC(=O)[C@@H]1CCCN1C(=O)[C@H](C)NC(=O)[C@@H]1CCCN1C(=O)[C@H](CCCNC(=N)N)NC(=O)[C@@H]1CCCN1C(=O)[C@H](CCCCN)NC(=O)[C@H](CO)NC(=O)[C@@H]1CCCN1C(=O)[C@H](CCCCN)NC(=O)CN)C(=O)N[C@@H](CCCCN)C(=O)N1CCC[C@H]1C(=O)N[C@@H](CCCNC(=N)N)C(=O)N1CCC[C@H]1C(=O)N1CCC[C@H]1C(=O)N[C@@H](Cc1c[nH]cn1)C(=O)N1CCC[C@H]1C(=O)N[C@@H](CCCNC(=N)N)C(=O)N[C@@H](CC(C)C)C(=O)O [Cd 3+] (H-GKPSKPRPAPIKPRPPHPRL-OH) : +++ ((+++) 10-14 mm)
CC[C@H](C)[C@H](NC(=O)[C@@H]1CCCN1C(=O)[C@H](C)NC(=O)[C@@H]1CCCN1C(=O)[C@H](CCCNC(=N)N)NC(=O)[C@@H]1CCCN1C(=O)[C@H](CCCNC(=N)N)NC(=O)[C@@H](N)CC(N)=O)C(=O)N[C@@H](CCC(N)=O)C(=O)N1CCC[C@H]1C(=O)N[C@@H](CCCNC(=N)N)C(=O)N1CCC[C@H]1C(=O)N1CCC[C@H]1C(=O)N[C@@H](Cc1c[nH]cn1)C(=O)N1CCC[C@H]1C(=O)N[C@@H](CCCNC(=N)N)C(=O)N[C@@H](CC(C)C)C(=O)O [Cd 1-] (H-NRPRPAPIQPRPPHPRL-OH) : +++ ((+++) 10-14 mm)

====

Each entry below lists one item and its recorded minimal inhibitory concentration (MIC) value.
System: M. morganii
Test Name: Minimal inhibitory concentration (liquid culture)
Condition Summary: inoculum 400 CFU/ml; a-b = highest concentration with growth - lowest without growth
Residues, ends and D or L forms follow the SMILES beside them.

CC[C@H](C)[C@H](NC(=O)[C@H](Cc1ccc(O)cc1)NC(=O)[C@@H](NC(=O)[C@@H]1CCCN1C(=O)[C@H](CCCNC(=N)N)NC(=O)[C@H](CC(N)=O)NC(=O)[C@H](C)N)C(C)C)C(=O)N1CCC[C@H]1C(=O)N1CCC[C@H]1C(=O)N1CCC[C@H]1C(=O)N[C@@H](CCCNC(=N)N)C(=O)N1CCC[C@H]1C(=O)N1CCC[C@H]1C(=O)N[C@@H](Cc1c[nH]cn1)C(=O)N1CCC[C@H]1C(=O)N[C@@H](CCCNC(=N)N)C(=O)N[C@@H](CC(C)C)C(=O)O [Bb+A] (H-ANRPVYIPPPRPPHPRL-OH) : 20 to 40 µg/mL

Okay, next one:
Data point: CC[C@H](C)[C@H](NC(=O)[C@@H]1CCCN1C(=O)[C@H](C)NC(=O)[C@@H]1CCCN1C(=O)[C@H](CCCNC(=N)N)NC(=O)[C@@H]1CCCN1C(=O)[C@H](CCCCN)NC(=O)[C@@H](N)CO)C(=O)N[C@@H](CCCCN)C(=O)N1CCC[C@H]1C(=O)N[C@@H](CCCNC(=N)N)C(=O)N1CCC[C@H]1C(=O)N1CCC[C@H]1C(=O)N[C@@H](Cc1c[nH]cn1)C(=O)N1CCC[C@H]1C(=O)N[C@@H](CCCNC(=N)N)C(=O)N[C@@H](CC(C)C)C(=O)O [Cd 3-] (H-SKPRPAPIKPRPPHPRL-OH) ; minimal inhibitory concentration (MIC) = 1 to 5 µg/mL
